Origin of the recorded values: patent US20200247855A1

Biological target: CXCL8_HUMAN (human, UniProt P10145 28-99)
Sequence (P10145 28-99): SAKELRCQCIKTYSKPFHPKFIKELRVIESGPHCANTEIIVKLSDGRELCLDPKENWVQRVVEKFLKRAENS
Assay: BLI
metric.name: pKd
On this scale, pKd is minus log10 of a concentration expressed in M (mol/L).

binder: P1168_IXORI (other) GQDTDGKEKSDEYELFTVEYCGTNCTQLENGSWTACTGKNGTCRCFHENDKKVGLCLSTEYTDFSEYPDPNSEEIKAASPLP
pKd: 7.68
//
binder: EVA3_RHISA (protein) LVSTIESRTSGDGADNFDVVSCNKNCTSGQNECPEGCFCGLLGQNKKGHCYKIIGNLSGEPPVVRR
pKd: 8.59
//
binder: P1156_IXORI (other) ADDDNELFTVQYCGMNCTKDEGGTWTGCTGKKEGCKCYHESGKNYGLCLSTEYTDFSQYGNPSDSEIEAAKPKRSDTLSH
pKd: 8.54

[in] Given P1172_IXORI (other) LHEDEIFTVDYCGTNCTKQSNGSWTTCPGNCSCYHEDGKTDGFCLSTEYTDFTQFPNLTSEEMDAATPRPE , state its recorded pKd.
[out] 7.57
